Assay: qHTS assay for small molecules that induce genotoxicity in human embryonic kidney cells expressing luciferase-tagged ATAD5 - cell viability (AID 651634); also: nearly all actives have a fitted effect of over 25% in size
Settings: HEK293T ATAD5-luc cells viability, CellTiter-Fluor, 15.5 h; series mostly up to 83.3 µM
Records with an inconclusive call do not appear. Activity calls are given as the source filed them. Calls follow the shape of the full dose curve.
Give your call using only these classes: T (active), F (inactive)

O=C1NCN(c2ccccc2)C12CCN(CCCOc1ccc(F)cc1)CC2 ... F

[Q] I would be grateful if you could indicate the recorded call for Clc1cc(C(Cl)(Cl)Cl)cnc1Cl .
[A] F

[Q] I would be grateful if you could indicate the recorded call for Cc1cc(=O)[nH]o1 .
[A] F

[Q] I would be grateful if you could indicate the recorded call for O=[Se]=O .
[A] T

[Q] I would be grateful if you could indicate the recorded call for CC(C)(C)c1cc([N+](=O)[O-])cc([N+](=O)[O-])c1O .
[A] T

* * *

Molecular target: Voltage-gated inwardly rectifying potassium channel KCNH2 (Homo sapiens)
Assay: Human Ether-a-go-go-Related Gene (hERG) channel small molecule antagonists: fluorescence cell-based qHTS assay (AID 1671200);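 also: hERG-expressing U2OS cells given a thallium stimulus after FluxOR II dye loading; nearly all actives have a fitted effect of over 50% in size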
Conditions: hERG-U2OS cells, FluxOR thallium flux fluorescence; series mostly up to 76.8 µM
Inconclusive results are not listed. Activity calls are given as the source filed them. The call rests on the fitted dose curve; in most records, active means well fitted inhibition curve with a large enough effect in the repeat runs; inconclusive means weak or mixed curves; inactive means flat fitted curve, though single readings scatter.
Give your call using only these classes: active, inactive

Nc1ccc(N=Nc2ccc(-c3ccc(N=Nc4c(S(=O)(=O)O)cc5cc(S(=O)(=O)O)c(N=Nc6ccccc6)c(O)c5c4N)cc3)cc2)c(N)c1 ... inactive
CCCC(=O)Cl ... inactive
C=CCCl ... inactive
CC(C)(C)c1cc([N+](=O)[O-])cc([N+](=O)[O-])c1O ... inactive
S=C=NCc1ccccc1 ... inactive
CCOP(O)OCC ... inactive

[Q] I would be grateful if you could indicate the recorded call for COc1ccc(-c2ccccc2)cc1NNC(=O)OC(C)C .
[A] inactive

[Q] I would be grateful if you could indicate the recorded call for ClC=C(Cl)Cl .
[A] inactive

* * *

Test: qHTS assay to identify small molecule agonists of the NFkB signaling pathway - cell viability counter screen (AID 1159515); also: nearly all actives have a fitted effect of over 55% in size
Conditions: NFkB-bla ME-180 viability, CellTiter-Glo luminescence, 5 h; series mostly up to 61 µM
Inconclusive results are not listed. Calls of active or inactive are those of the source. Calls come from the whole dose curve.
Give your call using only these classes: 1.0 (active), 0.0 (inactive)

[Q] I would be grateful if you could indicate the recorded call for CN1C[C@H](CNC(=O)OCc2ccccc2)C[C@@H]2c3cccc4c3c(cn4C)C[C@H]21 .
[A] 0.0

[Q] I would be grateful if you could indicate the recorded call for IC(I)=C(I)I .
[A] 1.0

[Q] I would be grateful if you could indicate the recorded call for C[C@@H]1CC[C@H]2[C@@H](C)C(=O)O[C@@H]3O[C@@]4(C)CC[C@@H]1[C@]32OO4 .
[A] 0.0

[Q] I would be grateful if you could indicate the recorded call for CCOP(=S)(OCC)Oc1nc(Cl)c(Cl)cc1Cl .
[A] 0.0

[Q] I would be grateful if you could indicate the recorded call for O=C(C(Cl)(Cl)Cl)C(Cl)(Cl)Cl .
[A] 0.0

[Q] I would be grateful if you could indicate the recorded call for O=C1CN=C(c2ccccc2)c2cc(Cl)ccc2N1CC1CC1 .
[A] 0.0

* * *

Assay: qHTS RealTime-Glo MT Cell Viability Assay in HEK293 cells - 32 hour (AID 1224868); also: nearly all actives have a fitted effect of over 50% in size
Details: RealTime-Glo luminescence; series mostly up to 76.8 µM
Inconclusive results are not listed. Activity calls are given as the source filed them. Calls come from the whole dose curve; as a rule, active = well fitted cell-killing curve with a large enough effect in the repeat runs; inconclusive = weak or mixed curves, or effect the other way; inactive = flat fitted curve, though single readings scatter.
Give your call using only these classes: YES for active, NO for inactive

The examples below pair each entry with its known result.
O=Cc1ccc2c(c1)OCO2 ... NO
CCCN(CC1CC1)c1c([N+](=O)[O-])cc(C(F)(F)F)cc1[N+](=O)[O-] ... NO
OCCCBr ... NO
CCOP(=O)(OCC)Oc1ccc([N+](=O)[O-])cc1 ... NO
C=COC(C)=O ... NO

[Q] I would be grateful if you could indicate the recorded call for NCCCNCCCN .
[A] NO

[Q] I would be grateful if you could indicate the recorded call for Clc1cccc(SC2CCNCC2)n1 .
[A] NO

[Q] I would be grateful if you could indicate the recorded call for CC1(C)CCC(Cc2ccc(Cl)cc2)C1(O)Cn1cncn1 (stereo not drawn) .
[A] YES

[Q] I would be grateful if you could indicate the recorded call for C/C=C/C=O .
[A] NO

[Q] I would be grateful if you could indicate the recorded call for C[N+](C)(C)CCCl .
[A] NO

[Q] I would be grateful if you could indicate the recorded call for N#CCc1ccccc1 .
[A] NO

[Q] I would be grateful if you could indicate the recorded call for CC(=O)NC1CCSC1=O (stereo not drawn) .
[A] NO

[Q] I would be grateful if you could indicate the recorded call for CCCCC(O)(Cn1cncn1)c1ccc(Cl)cc1Cl (stereo not drawn) .
[A] YES

[Q] I would be grateful if you could indicate the recorded call for CC/C(=N\OC/C=C/Cl)C1=C(O)CC(C2CCOCC2)CC1=O (stereo not drawn) .
[A] NO

[Q] I would be grateful if you could indicate the recorded call for CC(C)N(CCC(C(N)=O)(c1ccccc1)c1ccccn1)C(C)C (stereo not drawn) .
[A] NO

[Q] I would be grateful if you could indicate the recorded call for O=[N+]([O-])c1ccccc1CCl .
[A] NO

[Q] I would be grateful if you could indicate the recorded call for Clc1cc(Cl)c(Cl)c(Cl)c1 .
[A] NO

[Q] I would be grateful if you could indicate the recorded call for CCCCCCC#N .
[A] NO

* * *

Test: qHTS assay to identify small molecule agonists of H2AX - cell viability counter screen (AID 1224847); also: nearly all actives have a fitted effect of over 30% in size
Conditions: CHO-K1 viability, CellTiter-Glo luminescence, 3 h; series mostly up to 154 µM
Results filed as inconclusive are left out. The source made the active and inactive calls. Calls come from the whole dose curve.
Give your call using only these classes: T = active, F = inactive

CCBr ... F
NCCCNCCCN ... F
ClCC(Br)CBr (stereo not given) ... F
COC(=O)C(Br)CBr (stereo not given) ... F

[Q] I would be grateful if you could indicate the recorded call for CCCCCC[N+](=O)[O-] .
[A] F

[Q] I would be grateful if you could indicate the recorded call for Clc1cccc(SC2CCNCC2)n1 .
[A] F

[Q] I would be grateful if you could indicate the recorded call for CCOC(=O)CBr .
[A] F

[Q] I would be grateful if you could indicate the recorded call for O=C(O)c1ccccc1C(=O)Nc1cccc2ccccc12 .
[A] F

[Q] I would be grateful if you could indicate the recorded call for CO/N=C(/C(=O)OC)c1ccccc1COc1ccccc1C .
[A] T

* * *

Target: Acetylcholinesterase (Homo sapiens)
Assay: Acetylcholinesterase (AChE) small molecule antagonists: enzyme-based qHTS assay (AID 1347397); also: nearly all actives have a fitted effect of over 55% in size
Conditions: AChE enzyme activity inhibition; series mostly up to 115 µM
Activity calls are given as the source filed them. Calls come from the whole dose curve.
Readout label: outcome

A selection of reference data follows.
CC1C(=O)C[C@]2(C(C)C)C[C@H]12 (some centres undefined) ... inactive
CCN(C)N=O ... inactive
CC(O)(CS(=O)(=O)c1ccc(F)cc1)C(=O)Nc1ccc(C#N)c(C(F)(F)F)c1 (centres undefined) ... inactive
O=C(CBr)c1ccccc1 ... inactive
O=C(O)C(F)(F)C(F)(F)C(F)(F)C(F)(F)C(F)(F)C(F)(F)C(F)(F)C(F)(F)C(F)(F)C(F)(F)F ... inactive

Respectfully, I request outcome for each entry included below.
1. O=[N+]([O-])c1ccccc1CCl
2. CCOC(=O)CBr
3. CC(Cl)C(C)Cl (centres undefined)
4. CC(=O)C(C)(C)C

[A]
1: inactive; 2: inactive; 3: inactive; 4: inactive

* * *

Target: Peroxisome proliferator-activated receptor gamma (Homo sapiens) (UniProt P37231)
Sequence (P37231 whole entry, looked up): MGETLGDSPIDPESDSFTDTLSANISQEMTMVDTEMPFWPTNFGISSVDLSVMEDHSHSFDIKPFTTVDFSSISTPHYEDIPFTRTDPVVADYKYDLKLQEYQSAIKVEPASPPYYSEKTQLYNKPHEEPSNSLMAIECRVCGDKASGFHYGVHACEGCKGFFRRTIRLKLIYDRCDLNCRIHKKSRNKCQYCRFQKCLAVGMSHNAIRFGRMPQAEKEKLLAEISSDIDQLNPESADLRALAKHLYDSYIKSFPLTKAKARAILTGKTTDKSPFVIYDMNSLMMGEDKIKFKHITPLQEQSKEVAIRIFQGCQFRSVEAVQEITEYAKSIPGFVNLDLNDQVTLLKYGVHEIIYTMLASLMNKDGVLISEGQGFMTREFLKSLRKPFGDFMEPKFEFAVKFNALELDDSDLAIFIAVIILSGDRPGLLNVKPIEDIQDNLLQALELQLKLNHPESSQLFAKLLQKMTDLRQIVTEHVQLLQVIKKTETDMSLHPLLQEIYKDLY
Test: qHTS assay to identify small molecule antagonists of the peroxisome proliferator-activated receptor gamma (PPARg) signaling pathway (AID 743191); also: nearly all actives have a fitted effect of over 30% in size
Settings: HEK293H PPARg-UAS-bla, beta-lactamase ratio, antagonist, 17 h; series mostly up to 62.6 µM
Inconclusive results are not listed. The source made the active and inactive calls. Calls come from the whole dose curve.
Readout label: outcome

A selection of reference data follows.
CC(=O)C(C)(C)C ... inactive
C=CCCl ... inactive
O=[N+]([O-])c1cc(C(F)(F)F)cc([N+](=O)[O-])c1Cl ... inactive
CCCCCCC#N ... inactive

Respectfully, I request outcome for each entry included below.
1. Nc1nc(N)nc(N)n1
2. Clc1cc(C(Cl)(Cl)Cl)cnc1Cl
3. Cn1sc(Cl)cc1=O
4. C=CC(=O)OCC(C)O (centres undefined)
5. C#CCOC(C(=O)OCCN(C)C)(c1ccccc1)c1ccccc1

[A]
1. inactive
2. inactive
3. inactive
4. inactive
5. inactive

Respectfully, I request outcome for each entry included below.
1. O=S(=O)(Cl)c1ccccc1
2. CCCCC(CC)COP(=O)(Oc1ccccc1)Oc1ccccc1 (centres undefined)

[A]
1. inactive
2. inactive

Respectfully, I request outcome for each entry included below.
1. CCCCCCCCOC(=O)c1ccc(C(=O)OCCCCCCCC)c(C(=O)OCCCCCCCC)c1
2. CCOC(=O)[C@]1(c2ccccc2)Oc2ccccc2[C@@H]1N
3. CC1C(=O)C[C@]2(C(C)C)C[C@H]12 (some centres undefined)

[A]
1. inactive
2. inactive
3. inactive
